Tested on: Mycobacterium tuberculosis
Test: Antitubercular activity against Mycobacterium tuberculosis H37Rv ATCC 27294 using 7H9/ADC/Tween medium after 1 week in absence of guanine by broth microdilution method
Format: functional
Conditions: H37Rv ATCC 27294, 168 h
measured_attribute: MIC

Look over these answered cases.
[[record]]
molecule = "C[C@H](Oc1cccc(Cl)c1Cl)C(=O)Nc1ccc2oc(-c3ccc(/C(N)=N\\O)cc3)nc2c1"
measurement_target = "Mycobacterium tuberculosis"
observed_value = "> 50 µM"

[[record]]
molecule = "C[C@H](Oc1cccc(F)c1F)C(=O)Nc1ccc2oc(-c3ccncc3)nc2c1"
measurement_target = "Mycobacterium tuberculosis"
observed_value = "1.9 µM"

[[record]]
molecule = "C[C@H](Oc1cccc(F)c1F)C(=O)Nc1ccc2oc(-c3ccc(F)cc3)nc2c1"
measurement_target = "Mycobacterium tuberculosis"
observed_value = "> 50 µM"

[[record]]
molecule = "COc1ccc(OC(C)C(=O)Nc2ccc3oc(-c4ccncc4)nc3c2)cc1 (centres undefined)"
measurement_target = "Mycobacterium tuberculosis"
observed_value = "10 to 12.5 µM"

[[record]]
molecule = "C[C@H](Oc1cccc(Cl)c1Cl)C(=O)Nc1ccc2oc(-c3ccc(OC(F)(F)F)cc3)nc2c1"
measurement_target = "Mycobacterium tuberculosis"
observed_value = "> 50 µM"

[[record]]
molecule = "C[C@H](Oc1cccc(Cl)c1Cl)C(=O)Nc1ccc2oc(-c3ccc(F)cc3)nc2c1"
measurement_target = "Mycobacterium tuberculosis"
observed_value = "> 50 µM"

[[record]]
molecule = "C[C@H](Oc1cccc(Cl)c1Cl)C(=O)Nc1ccc2oc(-c3ccncc3)nc2c1"
measurement_target = "Mycobacterium tuberculosis"
observed_value = "16 µM"

[[record]]
molecule = "CCOC(=O)COc1ccc(-c2nc3cc(NC(=O)[C@H](C)Oc4cccc(Cl)c4Cl)ccc3o2)cc1"
measurement_target = "Mycobacterium tuberculosis"
observed_value = "0.2 to 3.1 µM"


Kindly consider the entry below.
Challenge: Name the recorded MIC for "C[C@H](Oc1ccc(F)c(F)c1F)C(=O)Nc1ccc2oc(-c3ccc(C#N)cc3)nc2c1" .
Response given: > 50 µM
